Reference for the values: patent US12187713B2

experiment: Pharmacokinetic Assay, single oral dose 100 mg/kg (Table 11); format: in vivo; details: mouse, C57 female mice, oral (intragastric), plasma
// values below are reported half-life
Only the number, expressed in h, is required.

Below, 5 compounds whose answers are already recorded.
{"compound": "Cc1c(-c2nc3cc(CN4CCCC4)ccc3o2)cccc1-c1cccc(-c2nc3cc(CN4CCC[C@H]4C(=O)O)c(OC(F)F)cc3o2)c1C [Example 98]", "unit.symbol": "h", "half-life": 4.47}
{"compound": "Cc1c(-c2nc3cc(CN4CC[C@H]4CO)c(OC(F)F)cc3o2)cccc1-c1cccc(-c2nc3cc(CN4CCC[C@H]4C(=O)O)c(OC(F)F)cc3o2)c1C [Example 31]", "unit.symbol": "h", "half-life": 9.81}
{"compound": "Cc1c(-c2ccc(CN3CCCC3)c(OC(F)F)c2)cccc1-c1cccc(-c2nc3cc(CN4CCC[C@H]4C(=O)O)c(OC(F)F)cc3o2)c1C [Example 244]", "unit.symbol": "h", "half-life": 7.01}
{"compound": "Cc1c(-c2nc3cc(CNC[C@H]4CCCO4)c(OC(F)F)cc3o2)cccc1-c1cccc(-c2nc3cc(CN4CCC[C@H]4C(=O)O)c(OC(F)F)cc3o2)c1C [Example 29]", "unit.symbol": "h", "half-life": 4.67}
{"compound": "Cc1c(-c2ccc(CN3CCCC3)c(F)c2)cccc1-c1cccc(-c2nc3cc(CN4CCC[C@H]4C(=O)O)c(OC(F)F)cc3o2)c1C [Example 243]", "unit.symbol": "h", "half-life": 6.93}

Now for a further compound.
Give half-life for Cc1c(-c2nc3cc(CN4CCC[C@H]4C(=O)O)c(OC(F)F)cc3o2)cccc1-c1cccc(-c2nc3cc(CN4CCCC4)c(OC(F)F)cc3o2)c1C#N [Example 65]
10.7
